Target: FABP5 (Homo sapiens)
Construct: made in house
Sequence (Q01469 whole entry, species assumed): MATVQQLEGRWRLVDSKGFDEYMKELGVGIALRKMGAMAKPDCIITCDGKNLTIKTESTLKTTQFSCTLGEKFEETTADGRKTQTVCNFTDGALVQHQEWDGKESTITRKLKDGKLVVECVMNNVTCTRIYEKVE
Test: FABP binding assay by fluorescence titration (ANS competition)
Settings: fluorescence competition with ANS; read-out: FABP5 binding
Protocol: This example illustrates a binding assay study used to determine the binding affinity of the various inhibitor compounds disclosed herein with the various FABPs: FABP3, FABP4, FABP5 and FABP7. Binding assays for FABP3, FABP4, FABP5 and FABP7 were carried out by fluorescence titrations. FABPs were bacterially expressed and purified and the equilibrium dissociation constants (Kd) that characterize their interactions with different compounds were measured by fluorescence competition assays. […]
Would you mind telling me the reported pKd of each entry?
Interpret pKd as the negative base-10 log of the concentration measured in mol/L.

Task item: Give recorded pKd with FABP5 (Homo sapiens) for the following compound: CC(C)Oc1cc(NC(=O)CSC(C)C(=O)O)c(Cl)cc1Cl (stereo not shown)
Reply: 8.22

Task item: Give recorded pKd with FABP5 (Homo sapiens) for the following compound: CC(C)Oc1cc(NC(=O)CSCC(=O)O)c(Cl)cc1Cl
Reply: 7.44

Task item: Give recorded pKd with FABP5 (Homo sapiens) for the following compound: CC(C)Oc1cc(NC(=O)C2CCC(C(=O)O)O2)c(Cl)cc1Cl (stereo not shown)
Reply: 7.82

Task item: Give recorded pKd with FABP5 (Homo sapiens) for the following compound: CC(C)Oc1cc(NC(=O)CC(C)(C)CC(=O)O)c(Cl)cc1Cl
Reply: 8.52

Task item: Give recorded pKd with FABP5 (Homo sapiens) for the following compound: CC(C)Oc1cc(NC(=O)CSC(C)(C)C(=O)O)c(Cl)cc1Cl
Reply: 8.15

Task item: Give recorded pKd with FABP5 (Homo sapiens) for the following compound: CC(C)Oc1cc(NC(=O)C(C)SC(C)C(=O)O)c(Cl)cc1Cl (stereo not shown)
Reply: 7.82

Task item: Give recorded pKd with FABP5 (Homo sapiens) for the following compound: CC(C)Oc1cc(NC(=O)CCCC(=O)O)c(Cl)cc1Cl
Reply: 8.22

Task item: Give recorded pKd with FABP5 (Homo sapiens) for the following compound: CC(C)Oc1cc(NC(=O)CC2(CC(=O)O)CCCC2)c(Cl)cc1Cl
Reply: 8.70

Task item: Give recorded pKd with FABP5 (Homo sapiens) for the following compound: CC(C)Oc1cc(NC(=O)C2CCC(C(=O)O)S2)c(Cl)cc1Cl (stereo not shown)
Reply: 8.70

Task item: Give recorded pKd with FABP5 (Homo sapiens) for the following compound: CC(C)Oc1cc(NC(=O)COCC(=O)O)c(Cl)cc1Cl
Reply: 7.82

---

assay: Level of B4 in serum and tissues after IP injection or oral gavage; assay type: in vivo, mice; details: Oral Gavage (0.71 μmole/mouse), 6 hr
VALUE KIND: Drug Concentration, Blood (µM)
Write down the numeric answer in µM and omit the unit.

Task item: Please report the recorded Drug Concentration, Blood for CC(C)Oc1cc(NC(=O)CSCC(=O)O)c(Cl)cc1Cl .
Reply: 0.98

---

assay: Level of B4 in serum and tissues after IP injection or oral gavage; type: in vivo, mice; details: Oral Gavage (0.71 μmole/mouse), 24 hr
VALUE KIND: Drug Concentration, Blood (nM)
Write down the numeric answer in nM and omit the unit.

Task item: Please report the recorded Drug Concentration, Blood for CC(C)Oc1cc(NC(=O)CSCC(=O)O)c(Cl)cc1Cl .
Reply: 7.2

---

test: Level of B4 in serum and tissues after IP injection or oral gavage; assay type: in vivo, mice; settings: IP Injection (0.35 μmole/mouse), 3 hr
VALUE KIND: Drug Concentration, Blood (nM)
Write down the numeric answer in nM and omit the unit.

Task item: Please report the recorded Drug Concentration, Blood for CC(C)Oc1cc(NC(=O)CSCC(=O)O)c(Cl)cc1Cl .
Reply: 1910

---

Biological target: FABP4 (Homo sapiens)
Construct: made in house
Sequence (P15090 whole entry, species assumed): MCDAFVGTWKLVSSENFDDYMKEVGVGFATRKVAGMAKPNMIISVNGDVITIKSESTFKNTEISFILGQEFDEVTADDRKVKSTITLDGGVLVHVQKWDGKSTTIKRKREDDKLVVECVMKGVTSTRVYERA
Experiment: FABP binding assay by fluorescence titration (ANS competition)
Conditions: FIG. 1A/1B; read-out: binding affinity towards FABP4 (Kd)
Protocol: This example illustrates a binding assay study used to determine the binding affinity of the various inhibitor compounds disclosed herein with the various FABPs: FABP3, FABP4, FABP5 and FABP7. Binding assays for FABP3, FABP4, FABP5 and FABP7 were carried out by fluorescence titrations. FABPs were bacterially expressed and purified and the equilibrium dissociation constants (Kd) that characterize their interactions with different compounds were measured by fluorescence competition assays. […]
VALUE KIND: Kd

Task item: Please report the recorded Kd for CC(C)Oc1cc(NC(=O)CSCC(=O)O)c(Cl)cc1Cl .
Reply: < 1 µM

---

assay: Level of B4 in serum and tissues after IP injection or oral gavage; format: in vivo, mice; conditions: IP Injection (0.35 μmole/mouse), 24 hr
VALUE KIND: Drug Concentration, Blood
The reply must contain the numeric value and, after it, the unit.

Task item: Please report the recorded Drug Concentration, Blood for CC(C)Oc1cc(NC(=O)CSCC(=O)O)c(Cl)cc1Cl .
Reply: 5.4 nM
